Substrate: BHET
TEST SETTINGS: 120 h
PARAMETER MEASURED: plate clearing

PROTEIN	MEASURED RESULT
unnamed (protein) MTEKDTSMKFFQATLSLTVGVLLTTALSGTALAESAYLRGPAPTVASVEAPAGPYQVTSQVMKDPVGYKAGTVFYPSDAQGQSFGLIVVAPGFIETQSWNAWWAQYLASHGFVVINIDTQSTLEFPAARAKEELAALNDVVRRSTQPDSPLFGLVDASRQGAMGHSMGGGATLEIAKANPYLKAIVPMAPFQTSGTDYSKLTVPTLIMACKGDVVATASSHSEPIYKSLSPSLDKAYLEMQGGAGHPCTTSVGTSDKVRTLAGKYGLAWFKRFLDEDTRYSQFLCGIPHGLDMFGKVISGYKGNCPY	not clears the plate
unnamed (protein) MPDADTGRRANRCGAGNPAEGNPVITTRKRLVRRLAALVLVAFALVACDIKGPDPTDAILTASSGPFGVGTLAVPTSAGFGGGTIYYPTGVDGPFAVISVAPGFTETASAVAEWGPRLASHGFVTIVFNTSNTFENPSTRSTEQRQALTYTINQSNTAGSPIAGLVDGNRRGVAGHSMGGGGTLISEQADSTIRAGVPLAPWNTSPDFPDITVPTLFLACQNDSIAPVANHASPMYESIPATTHKSFVSFAGGDHFCANSPTGGSSNAGKFAVAFFKKFLDGDTRYDPWVCGASKPAVNSAINEVRSTCPF	not clears the plate
